pIC50: recorded values
molecular target: SARS-CoV-2 3CL-protease (Severe acute respiratory syndrome coronavirus 2 (2019-nCoV) (SARS-CoV-2)); experiment: SARS-CoV-2 3C-like (3CL) protease fluorescence assay (FRET); format: biochemical; settings: read-out: FRET IC50
pIC50: −log10 of the molar value.

Some molecules with known pIC50 results, for comparison:
Molecule: CCCN(C(=O)OCc1ccccc1)[C@@H](CC(C)C)C(=O)N1C[C@]2(C[C@H]1C#N)C(=O)Nc1ccccc12 [Compound 97]
pIC50: > 7.00

Molecule: COc1cccc2[nH]c(C(=O)N[C@@H](CC(C)C)C(=O)N3C[C@]4(C[C@H]3C(=O)NS(=O)(=O)C3CC3)C(=O)Nc3ccccc34)cc12 [Compound 38]
pIC50: < 6.00

Molecule: CC(C)C[C@H](NC(=O)c1cc2c(F)cccc2[nH]1)C(=O)N1C[C@]2(C[C@H]1C#N)C(=O)Nc1ccccc12 [Compound 27]
pIC50: > 7.00

Molecule: COc1cccc2c1cc(C(=O)N(C)[C@@H](CC(C)C)C(=O)N1C[C@]3(C[C@H]1C#N)C(=O)Nc1ccccc13)n2C [Compound 53]
pIC50: > 7.00

Molecule: CC(C)(C)C[C@H](NC(=O)c1cc2c(F)c(F)ccc2[nH]1)C(=O)N1C[C@]2(C[C@H]1C#N)C(=O)Nc1ccccc12 [Compound 20]
pIC50: > 7.00

Field request: pIC50 | item: CC(C)C[C@@H](C(=O)N1C[C@]2(C[C@H]1C#N)C(=O)Nc1ccccc12)N(C)C(=O)c1sc2cc(F)ccc2c1Cl [Compound 43] 6.00 to 7.00

Field request: pIC50 | item: CC(C)CC[C@@H](C(=O)N1C[C@]2(C[C@H]1C#N)C(=O)Nc1ccccc12)N(C)C(=O)OCc1ccccc1 [Compound 100] > 7.00

Field request: pIC50 | item: Cc1c(C(=O)N(C)[C@@H](CC(C)C)C(=O)N2C[C@]3(C[C@H]2C#N)C(=O)Nc2ccccc23)[nH]c2cc(F)cc(F)c12 [Compound 47] > 7.00

---

target: UniProtKB P0DTD1; test: SARS-CoV-2 3C-like (3CL) protease fluorescence assay (FRET); assay type: biochemical; settings: read-out: FRET IC50
Quantity name: IC50

Compound: CC(C)(C)[C@H](NC(=O)c1cc2c(F)cccc2[nH]1)C(=O)N1C[C@]2(C[C@H]1C#N)C(=O)Nc1ccccc12 [Compound 18]
Quantity name: IC50
Assay value: > 1 µM

Field request: IC50 | item: C=CCN(C(=O)OCc1ccccc1)[C@@H](CC(C)C)C(=O)N1C[C@]2(C[C@H]1C#N)C(=O)Nc1ccccc12 [Compound 96] < 0.1 µM

---

IC50: recorded values
target: SARS-CoV-2 3CL-protease (Severe acute respiratory syndrome coronavirus 2 (2019-nCoV) (SARS-CoV-2), UniProt P0DTD1); assay: SARS-CoV-2 3C-like (3CL) protease fluorescence assay (FRET); assay type: biochemical; details: read-out: FRET IC50

Smiles structure: CC(C)C[C@@H](C(=O)N1C[C@]2(C[C@H]1C#N)C(=O)Nc1ccccc12)N(C)C(=O)c1cc2cc(F)c(F)cc2[nH]1
Assay value: < 100 nM
--
Smiles structure: CC(C)(F)C[C@H](NC(=O)OCc1ccccc1)C(=O)N1C[C@]2(C[C@H]1C#N)C(=O)Nc1ccccc12
Assay value: < 100 nM
--
Smiles structure: CC(C)C[C@@H](C(=O)N1C[C@]2(C[C@H]1C#N)C(=O)Nc1ccccc12)N(C)C(=O)c1cc2c(Cl)cccc2[nH]1
Assay value: < 100 nM
--
Smiles structure: CCCN(C(=O)c1cc2c(F)cccc2[nH]1)[C@@H](CC(C)C)C(=O)N1C[C@]2(C[C@H]1C#N)C(=O)Nc1ccccc12
Assay value: < 100 nM
--
Smiles structure: CC(C)C[C@@H](C(=O)N1C[C@]2(C[C@H]1C(=O)C(=O)NC1CCCCC1)C(=O)Nc1ccccc12)N(C)C(=O)c1cc2c(F)cccc2[nH]1
Assay value: > 1000 nM

Shift focus to the following entry.
Field request: IC50 | item: CC(C)C[C@@H](C(=O)N1C[C@]2(C[C@H]1C#N)C(=O)Nc1ccccc12)N(C)C(=O)c1cc(F)ccc1Cl < 100 nM

---

IC50: recorded values
biological target: SARS-CoV-2 3CL-protease (Severe acute respiratory syndrome coronavirus 2 (2019-nCoV) (SARS-CoV-2), UniProt P0DTD1); experiment: SARS-CoV-2 3C-like (3CL) protease fluorescence assay (FRET); format: biochemical; conditions: read-out: FRET IC50

Some compounds with known IC50 results, for comparison:
Smiles structure: CC(C)(C)OC[C@H](NC(=O)OCc1ccccc1)C(=O)N1C[C@]2(C[C@H]1C#N)C(=O)Nc1ccccc12
IC50: 100 to 1000 nM
--
Smiles structure: CN(C(=O)c1cnn(-c2ccccc2C(F)(F)F)c1)[C@@H](CC1CC1)C(=O)N1C[C@]2(C[C@H]1C#N)C(=O)Nc1ccccc12
IC50: < 100 nM
--
Smiles structure: COc1cccc2[nH]c(C(=O)N(C)[C@@H](CC(C)C)C(=O)N3C[C@]4(C[C@H]3C#N)C(=O)N(C)c3ccccc34)cc12
IC50: < 100 nM
--
Smiles structure: CC(C)(C)[C@H](NC(=O)OCc1ccccc1)C(=O)N1C[C@]2(C[C@H]1C#N)C(=O)Nc1ccccc12
IC50: > 1000 nM
--
Smiles structure: CC(C)C[C@@H](C(=O)N1C[C@]2(C[C@H]1C#N)C(=O)Nc1ccccc12)N(C)C(=O)c1cc2c(Cl)cc(F)cc2[nH]1
IC50: < 100 nM
--
Smiles structure: CC(C)C[C@@H](C(=O)N1C[C@]2(C[C@H]1C#N)C(=O)Nc1ccccc12)N(C)C(=O)c1cc2c(OC(F)(F)F)cccc2[nH]1
IC50: < 100 nM

Field request: IC50 | item: CN(C(=O)OCc1ccccc1)[C@@H](CC(C)(C)F)C(=O)N1C[C@]2(C[C@H]1C#N)C(=O)Nc1ccccc12 < 100 nM

Field request: IC50 | item: CC(C)C[C@@H](C(=O)N1C[C@]2(C[C@H]1C#N)C(=O)Nc1ccccc12)N(C)C(=O)c1cc2c(OC(F)F)cccc2[nH]1 < 100 nM

Field request: IC50 | item: CN(C(=O)c1cc2c(OC(F)(F)F)cccc2[nH]1)[C@@H](CC1CCCC1)C(=O)N1C[C@]2(C[C@H]1C#N)C(=O)Nc1ccccc12 < 100 nM

Field request: IC50 | item: COc1cccc2[nH]c(C(=O)N[C@@H](CC(C)C)C(=O)N3C[C@]4(C[C@H]3C#N)C(=O)N(C)c3ccccc34)cc12 100 to 1000 nM

---

biological target: SARS-CoV-2 3CL-protease (Severe acute respiratory syndrome coronavirus 2 (2019-nCoV) (SARS-CoV-2)); assay: SARS-CoV-2 3C-like (3CL) protease fluorescence assay (FRET); format: biochemical; conditions: read-out: FRET IC50
pIC50: −log10 of the molar value.
pIC50: recorded values

Smiles structure: CC(C)C[C@@H](C(=O)N1C[C@]2(C[C@H]1C#N)C(=O)Nc1ccccc12)N(C)C(=O)c1cc2cc(Cl)cc(Cl)c2[nH]1
pIC50: > 7.00

Smiles structure: CC(C)C[C@@H](C(=O)N1C[C@]2(C[C@H]1C#N)C(=O)Nc1ccccc12)N(C)C(=O)c1cc2c(F)ccc(F)c2[nH]1
pIC50: > 7.00

Field request: pIC50 | item: CN(C(=O)c1cc2c(F)cccc2[nH]1)[C@@H](CC(C)(C)C)C(=O)N1C[C@]2(C[C@H]1C#N)C(=O)Nc1ccccc12 > 7.00

---

biological target: SARS-CoV-2 3CL-protease (Severe acute respiratory syndrome coronavirus 2 (2019-nCoV) (SARS-CoV-2)); assay: SARS-CoV-2 3C-like (3CL) protease fluorescence assay (FRET); format: biochemical; settings: read-out: FRET IC50
IC50: recorded values

Some compounds with known IC50 results, for comparison:
Smiles structure: CC(C)C[C@H](NC(=O)c1cc2c(F)cccc2[nH]1)C(=O)N1C[C@]2(C[C@H]1C#N)C(=O)Nc1c(F)cccc12
IC50: < 100 nM
//
Smiles structure: CN(C(=O)c1cc2c(F)cc(F)cc2[nH]1)[C@@H](CC1CCCC1)C(=O)N1C[C@]2(C[C@H]1C#N)C(=O)Nc1ccccc12
IC50: < 100 nM
//
Smiles structure: CC(C)C[C@@H](C(=O)N1C[C@]2(C[C@H]1C#N)C(=O)Nc1ccccc12)N(C)C(=O)c1cc2c(F)cccc2[nH]1
IC50: < 100 nM

Field request: IC50 | item: CC(C)C[C@H](NC(=O)c1cc2c(F)cccc2[nH]1)C(=O)N1C[C@]2(C[C@H]1C=O)C(=O)Nc1ccccc12 < 100 nM

Field request: IC50 | item: COc1cccc2[nH]c(C(=O)N(C)[C@@H](CC3CCC3)C(=O)N3C[C@]4(C[C@H]3C#N)C(=O)Nc3ccccc34)cc12 < 100 nM

Field request: IC50 | item: CCCN(C(=O)c1cc2c(F)cc(F)cc2[nH]1)[C@@H](CC(C)C)C(=O)N1C[C@]2(C[C@H]1C#N)C(=O)Nc1ccccc12 < 100 nM
